Data provenance: the supplement of paper PMC10065799

biological target: SHP2-C SH2; assay: SH2 binding enrichment of the phosphorylated peptide, bacterial display (enrichment ratio); higher = better substrate or ligand; peptides without Tyr show the background
Answer f if SH2 binding enrichment is under 0.8, and t if it is 0.8 or more.

// known answers, use as guide
Reported SH2 binding enrichment reaches at least 0.8 for RFLKDYGEFEV [GINS1_Y156_C152Y_YF] ?
f

Is SH2 binding enrichment for NDLMEYAKQHG [ASS1_Y163] at or above 0.8?
f

SH2 binding enrichment >= 0.8 for DLQDEYDFKCK [STAT1_Y170] ?
f

Please indicate if the recorded SH2 binding enrichment for FSPFDYQPCLA [TNS1_Y798_YF] meets or exceeds 0.8.
f

Is SH2 binding enrichment at least 0.8? Consider SVTCTYSPARN [TP53_Y126_L130R]
f

Further cases:
Is the recorded value of SH2 binding enrichment equal to or greater than 0.8 for this sequence? MFRVQYNSSVD [LRFN1_Y458_Q455R_YF]
t

Decide: is the reported value of SH2 binding enrichment for MASTSYDFCRV [BST2_Y6_YF] equal to or greater than 0.8?
f

Evaluate NFNPNYCFAGK [ALK_Y1096_D1091N_YF] : SH2 binding enrichment at minimum 0.8?
t

Check if SH2 binding enrichment >= 0.8 (inclusive). Item: SLAARYFNWVS [FLT4_Y1230_YF]
t

Is reported SH2 binding enrichment greater than or equal to 0.8 here: PVFEVYPLLNC [GATA1_Y78_Q76E]
f

Is reported SH2 binding enrichment greater than or equal to 0.8 here: ASGKFYAMKIL [AKT3_Y174_YF]
t

Does the sequence VYSSDYFSFVL [USP24_Y2138] have recorded SH2 binding enrichment that is 0.8 or more?
f

Does the sequence GIMEEYQLPYY [BMPR1A_Y453_V450M] have recorded SH2 binding enrichment that is 0.8 or more?
f

Confirm if SH2 binding enrichment reported for the sequence RLPSGYGLAYR [DLK1_Y262] is 0.8 or above.
t

Has SLDLSYFTTSS [EMD_Y181_P183T_YF] a recorded SH2 binding enrichment greater than or equal to 0.8?
f

Has GRTPLYMDRQG [AGXT_Y194_G190R] a recorded SH2 binding enrichment greater than or equal to 0.8?
t

Decide: SH2 binding enrichment of QTPVLYAMLYH [MPZ_Y220_D224Y] >= 0.8?
t

Reported SH2 binding enrichment reaches at least 0.8 for GRSTYYWPRPR [GAGE12J_Y10] ?
f

Would you say LKRIAYFLCLL [LGI1_Y21] shows SH2 binding enrichment at minimum 0.8?
t

Kindly determine if SH2 binding enrichment recorded for HNELYYEEAEH [VANGL1_Y345] is above or exactly 0.8.
t

In plain terms: is recorded SH2 binding enrichment at least 0.8 for GEDDVYDSVPG [FGR_opt_2018] ?
f

Threshold query (SH2 binding enrichment >= 0.8) on WEPFGFAVTRC [PTPRT_Y412_Y412F]
f

Identify whether the reported SH2 binding enrichment of the following sequence is 0.8 or greater: NQILPYIEELV [PPP2R1B_Y341_K343E]
t

====

biological target: c-Src SH2; test: SH2 binding enrichment of the phosphorylated peptide, bacterial display (enrichment ratio); higher = better substrate or ligand; peptides without Tyr show the background
Parameter threshold = 0.7. Response is 1 when SH2 binding enrichment meets or exceeds it, else -1.

Recorded results for 5 sequences are shown here.
Decide: is the reported value of SH2 binding enrichment for AMGPVYQAAAL [HYOU1_Y421_A419P] equal to or greater than 0.7?
-1

Please indicate if the recorded SH2 binding enrichment for HLMLQYDAVVN [SLC25A32_Y152_R147H] meets or exceeds 0.7.
1

hey, is SH2 binding enrichment for this one >= 0.7? EVKEAYMGSVL [ACAT1_Y90_N93S]
-1

Textbook exercise: given the entry LEQGEYALRSH [HADHB_Y244_D242G] , state whether its SH2 binding enrichment is greater than or equal to 0.7.
-1

Say whether EYKDAYKFAAD [BRDT_Y335] shows SH2 binding enrichment of 0.7 or more.
1

***
Is the recorded value of SH2 binding enrichment equal to or greater than 0.7 for this sequence? DSFWSYCNAVA [SLC20A2_Y436_S434W_YF]
-1

Reported SH2 binding enrichment at or above 0.7? CEAIEYLESKQ [BTK_Y511_M509I]
-1

Textbook exercise: given the entry AGIVVYNIIGW [MYH7_Y588_D587V] , state whether its SH2 binding enrichment is greater than or equal to 0.7.
-1

Please check the record CTTVHYNFMCN [TP53_Y234_I232V_YF] and state if its SH2 binding enrichment is at or above 0.7.
1

Determine whether this sequence has SH2 binding enrichment no lower than 0.7: NAGAFYVLSTL [FLVCR2_Y325_A326V]
-1

Record YDGKEYDPVEA [MAPRE2_Y167] ; criterion: SH2 binding enrichment no lower than 0.7. Met?
-1

Hello, I need to know if LRSKQYLRNPP [SHC1_Y315_F312S] has measured SH2 binding enrichment not below 0.7. Thanks!
1

Exam item: decide whether the reported SH2 binding enrichment for AERKLYSGAQT [ZAP70_Y178] is at least 0.7.
-1

Item GFPVRYTDVSN [DNMT3B_Y815_H814R] with SH2 binding enrichment of 0.7 or above?
1

Quick check: does QYQEKYKQVEQ [HCN4_Y531] have SH2 binding enrichment greater than or equal to 0.7?
1

====

biological target: EPHB2 (UniProt P29323); assay: phosphorylation enrichment, bacterial display (enrichment ratio); higher = better substrate or ligand; peptides without Tyr show the background
Sequence (P29323 whole entry, looked up): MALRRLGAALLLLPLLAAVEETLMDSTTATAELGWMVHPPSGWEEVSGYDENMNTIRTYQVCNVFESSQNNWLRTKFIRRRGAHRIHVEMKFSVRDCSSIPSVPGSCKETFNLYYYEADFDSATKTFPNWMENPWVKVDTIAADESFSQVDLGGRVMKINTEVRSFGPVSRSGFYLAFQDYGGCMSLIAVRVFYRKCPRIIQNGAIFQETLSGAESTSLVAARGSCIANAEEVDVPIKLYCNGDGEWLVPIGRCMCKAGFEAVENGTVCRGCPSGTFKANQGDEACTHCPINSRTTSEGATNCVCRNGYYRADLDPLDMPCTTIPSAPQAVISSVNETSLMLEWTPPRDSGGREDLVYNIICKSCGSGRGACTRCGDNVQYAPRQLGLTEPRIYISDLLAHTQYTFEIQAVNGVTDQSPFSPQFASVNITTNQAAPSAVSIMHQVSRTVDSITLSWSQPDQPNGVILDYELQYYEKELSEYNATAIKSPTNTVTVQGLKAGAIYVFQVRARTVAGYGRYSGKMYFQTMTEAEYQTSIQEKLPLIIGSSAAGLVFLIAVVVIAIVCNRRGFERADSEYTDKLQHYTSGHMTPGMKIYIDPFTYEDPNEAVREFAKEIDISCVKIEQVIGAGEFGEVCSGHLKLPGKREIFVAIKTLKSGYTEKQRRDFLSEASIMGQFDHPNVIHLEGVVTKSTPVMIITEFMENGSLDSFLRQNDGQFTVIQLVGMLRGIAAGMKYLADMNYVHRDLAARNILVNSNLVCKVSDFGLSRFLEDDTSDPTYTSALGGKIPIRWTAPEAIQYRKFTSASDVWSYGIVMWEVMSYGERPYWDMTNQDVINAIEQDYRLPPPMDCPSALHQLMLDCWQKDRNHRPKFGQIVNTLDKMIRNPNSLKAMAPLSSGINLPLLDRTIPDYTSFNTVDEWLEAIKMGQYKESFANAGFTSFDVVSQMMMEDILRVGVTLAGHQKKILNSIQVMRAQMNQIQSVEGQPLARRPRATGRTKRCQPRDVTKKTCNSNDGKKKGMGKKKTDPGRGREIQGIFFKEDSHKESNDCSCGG
Outcome: Yes for phosphorylation enrichment of at least 0.6; No for anything lower.

Would you say NAGAFYVLSTL [FLVCR2_Y325_A326V] shows phosphorylation enrichment at minimum 0.6?
No

Please tell me: is the sequence RELSWYRGQRP [HESX1_Y106_R109Q] at or over 0.6 in terms of phosphorylation enrichment?
Yes

hey, is phosphorylation enrichment for this one >= 0.6? QEGPEYWDQQT [HLA-A_Y83_E87Q]
Yes

Would you say DSIRDYEDGTE [CLNS1A_Y214_M218T] shows phosphorylation enrichment at minimum 0.6?
No

Check this sequence for phosphorylation enrichment at or above 0.6: DMGAQYAAASR [ARID1B_Y483_P488R]
No

More entries:
Please tell me: is the sequence ALKKPYSVLYK [RPF2_Y59_G60S] at or over 0.6 in terms of phosphorylation enrichment?
No

====

target: Hck (UniProt P08631); test: phosphorylation enrichment, bacterial display (enrichment ratio); higher = better substrate or ligand; peptides without Tyr show the background
Sequence (P08631 whole entry, looked up): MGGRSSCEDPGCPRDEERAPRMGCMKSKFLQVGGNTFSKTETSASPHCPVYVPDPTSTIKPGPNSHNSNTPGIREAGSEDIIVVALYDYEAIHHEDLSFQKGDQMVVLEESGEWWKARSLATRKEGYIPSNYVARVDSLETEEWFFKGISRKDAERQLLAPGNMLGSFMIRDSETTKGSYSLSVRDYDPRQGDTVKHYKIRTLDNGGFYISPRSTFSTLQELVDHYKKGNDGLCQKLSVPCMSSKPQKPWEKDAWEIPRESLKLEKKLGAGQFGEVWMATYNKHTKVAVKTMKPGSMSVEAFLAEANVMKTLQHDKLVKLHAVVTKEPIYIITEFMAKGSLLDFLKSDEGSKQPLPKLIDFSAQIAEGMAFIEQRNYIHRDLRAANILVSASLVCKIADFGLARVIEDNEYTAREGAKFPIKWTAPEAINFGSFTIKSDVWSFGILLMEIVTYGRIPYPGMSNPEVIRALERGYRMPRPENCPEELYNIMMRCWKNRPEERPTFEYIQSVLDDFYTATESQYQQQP
experimental.readout: phosphorylation enrichment
Enter the number alone.

Here is how some sequences turned out for phosphorylation enrichment.
Reported phosphorylation enrichment for Hck (UniProt P08631), given LLVVLCKFRCF [PSEN1_Y154_Y154C_YF] ?
0.887

Notebook: pull reported phosphorylation enrichment for Hck (UniProt P08631), entry DFLEKYFKFGC [NNMT_Y24_S29C_YF]
0.417

Request - read-out phosphorylation enrichment | tested on Hck (UniProt P08631) | sequence VRTGIYHGGEP [PIK3CA_Y361]
0.586

API: value(readout=phosphorylation enrichment, system=Hck (UniProt P08631)) for record SYCYRYRCAAR [SUMF1_Y344]
0.386

Param readout= phosphorylation enrichment; system= Hck (UniProt P08631); entry= CTTIHNNFMCN [TP53_Y234_Y234N_YF] ; returns value.
0.517

Please state recorded phosphorylation enrichment (tested on Hck (UniProt P08631)) of PYSNSYENSLI [EPOR_Y489_P488S]
0.887

Find the measured phosphorylation enrichment: item MSRDVYSIDFF [NTRK2_Y702_T704I_YF] , target or system Hck (UniProt P08631).
4.17

State its phosphorylation enrichment on Hck (UniProt P08631): LFEDCYLLGTS [ASS1_Y87_R86C_YF]
0.58

Enter reported phosphorylation enrichment observed with Hck (UniProt P08631) for IFHENYNAGTF [CFI_Y421_YF]
0.417

Hi! What's the reported phosphorylation enrichment for RIFDFYSARKT [STOX1_Y858_A863T_YF] on Hck (UniProt P08631)?
1.37

Continuing:
Please tell me: phosphorylation enrichment of CTTVHYNFMCN [TP53_Y234_I232V_YF] , system Hck (UniProt P08631)?
0.445

Please state recorded phosphorylation enrichment (tested on Hck (UniProt P08631)) of FQNSLYAPDYS [FAM92A_Y226_R222Q]
1.46

Notebook: pull reported phosphorylation enrichment for Hck (UniProt P08631), entry GHPFAYDWISI [BEST1_Y227_L224P_YF]
0.811
